target: MTOR (human)
Measured property: IC50

-- ask IC50 for CN1CC[C@H](c2c(O)cc(O)c3c(=O)cc(-c4ccccc4Cl)oc23)[C@H](O)C1 ?
-- reply > 10 µM

* * *

target: LIMK1 (human) (UniProt P53667)
Sequence (P53667 whole entry, looked up): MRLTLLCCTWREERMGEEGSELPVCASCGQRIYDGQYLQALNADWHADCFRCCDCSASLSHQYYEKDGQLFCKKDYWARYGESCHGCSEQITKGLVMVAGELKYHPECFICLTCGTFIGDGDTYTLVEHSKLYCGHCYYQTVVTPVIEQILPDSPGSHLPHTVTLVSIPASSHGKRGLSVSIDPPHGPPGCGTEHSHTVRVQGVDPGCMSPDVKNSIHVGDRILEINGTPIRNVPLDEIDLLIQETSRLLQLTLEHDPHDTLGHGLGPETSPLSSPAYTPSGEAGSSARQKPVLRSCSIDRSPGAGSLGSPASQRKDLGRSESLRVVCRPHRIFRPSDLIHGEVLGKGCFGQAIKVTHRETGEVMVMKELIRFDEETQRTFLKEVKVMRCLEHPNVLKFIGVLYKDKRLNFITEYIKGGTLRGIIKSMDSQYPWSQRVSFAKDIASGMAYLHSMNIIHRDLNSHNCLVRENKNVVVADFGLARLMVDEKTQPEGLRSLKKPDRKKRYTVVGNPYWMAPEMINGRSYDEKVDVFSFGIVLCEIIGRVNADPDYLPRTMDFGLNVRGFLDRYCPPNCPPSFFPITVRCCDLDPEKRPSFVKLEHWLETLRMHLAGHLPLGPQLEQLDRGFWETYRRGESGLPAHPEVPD
pIC50: −log10 of the molar value.
Measured property: pIC50

-- ask Which pIC50 reading was recorded for the molecule CN1CC[C@H](c2c(O)cc(O)c3c(=O)cc(-c4ccccc4Cl)oc23)[C@H](O)C1 ?
-- reply < 5.00

* * *

Measured property: IC50

-- ask // lookup IC50 | system=MAPK14 (human) (UniProt Q16539) | key= CN1CC[C@H](c2c(O)cc(O)c3c(=O)cc(-c4ccccc4Cl)oc23)[C@H](O)C1
-- reply > 10 µM

* * *

target: MAPK1 (human) (UniProt P28482)
Sequence (P28482 whole entry, looked up): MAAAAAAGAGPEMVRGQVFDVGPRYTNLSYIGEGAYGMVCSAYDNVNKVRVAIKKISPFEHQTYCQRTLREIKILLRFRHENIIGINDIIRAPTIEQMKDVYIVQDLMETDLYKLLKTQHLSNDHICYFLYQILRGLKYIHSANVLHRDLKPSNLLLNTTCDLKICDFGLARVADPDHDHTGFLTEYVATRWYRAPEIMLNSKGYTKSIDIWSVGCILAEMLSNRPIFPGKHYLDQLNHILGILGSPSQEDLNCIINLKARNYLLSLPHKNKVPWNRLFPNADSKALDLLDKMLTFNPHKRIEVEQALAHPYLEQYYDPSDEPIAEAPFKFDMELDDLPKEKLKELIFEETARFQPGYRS
Measured property: IC50

-- ask Recorded IC50 for CN1CC[C@H](c2c(O)cc(O)c3c(=O)cc(-c4ccccc4Cl)oc23)[C@H](O)C1 with MAPK1 (human) (UniProt P28482), please?
-- reply > 10 µM

* * *

pIC50: −log10 of the molar value.
Measured property: pIC50

-- ask // map CN1CC[C@H](c2c(O)cc(O)c3c(=O)cc(-c4ccccc4Cl)oc23)[C@H](O)C1 to recorded pIC50 (system: UniProtKB P27361)
Sequence (P27361 whole entry, looked up): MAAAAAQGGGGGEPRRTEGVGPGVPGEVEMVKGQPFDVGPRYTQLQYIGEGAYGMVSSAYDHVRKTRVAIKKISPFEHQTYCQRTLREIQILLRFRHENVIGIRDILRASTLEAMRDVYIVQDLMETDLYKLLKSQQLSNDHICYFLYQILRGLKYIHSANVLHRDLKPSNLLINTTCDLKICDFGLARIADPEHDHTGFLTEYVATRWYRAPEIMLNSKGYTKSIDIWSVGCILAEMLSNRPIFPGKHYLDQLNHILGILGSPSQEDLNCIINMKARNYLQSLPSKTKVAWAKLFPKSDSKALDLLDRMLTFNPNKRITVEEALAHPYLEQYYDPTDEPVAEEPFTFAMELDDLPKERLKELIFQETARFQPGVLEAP
-- reply < 5.00

* * *

molecular target: MAP2K5 (human)
Measured property: pIC50
pIC50 field: float, defined as -log10 of concentration (mol/L).

-- ask For the compound shown here, CN1CC[C@H](c2c(O)cc(O)c3c(=O)cc(-c4ccccc4Cl)oc23)[C@H](O)C1 , give the reported pIC50.
-- reply 5.01

* * *

pIC50: −log10 of the molar value.
Measured property: pIC50

-- ask UniProtKB P19784 / pIC50 / CN1CC[C@H](c2c(O)cc(O)c3c(=O)cc(-c4ccccc4Cl)oc23)[C@H](O)C1 : value?
-- reply < 5.00

* * *

Measured property: IC50

-- ask Form entry - test system: BRAF (human) (UniProt P15056); read-out: IC50; compound: CN1CC[C@H](c2c(O)cc(O)c3c(=O)cc(-c4ccccc4Cl)oc23)[C@H](O)C1
Sequence (P15056 whole entry, looked up): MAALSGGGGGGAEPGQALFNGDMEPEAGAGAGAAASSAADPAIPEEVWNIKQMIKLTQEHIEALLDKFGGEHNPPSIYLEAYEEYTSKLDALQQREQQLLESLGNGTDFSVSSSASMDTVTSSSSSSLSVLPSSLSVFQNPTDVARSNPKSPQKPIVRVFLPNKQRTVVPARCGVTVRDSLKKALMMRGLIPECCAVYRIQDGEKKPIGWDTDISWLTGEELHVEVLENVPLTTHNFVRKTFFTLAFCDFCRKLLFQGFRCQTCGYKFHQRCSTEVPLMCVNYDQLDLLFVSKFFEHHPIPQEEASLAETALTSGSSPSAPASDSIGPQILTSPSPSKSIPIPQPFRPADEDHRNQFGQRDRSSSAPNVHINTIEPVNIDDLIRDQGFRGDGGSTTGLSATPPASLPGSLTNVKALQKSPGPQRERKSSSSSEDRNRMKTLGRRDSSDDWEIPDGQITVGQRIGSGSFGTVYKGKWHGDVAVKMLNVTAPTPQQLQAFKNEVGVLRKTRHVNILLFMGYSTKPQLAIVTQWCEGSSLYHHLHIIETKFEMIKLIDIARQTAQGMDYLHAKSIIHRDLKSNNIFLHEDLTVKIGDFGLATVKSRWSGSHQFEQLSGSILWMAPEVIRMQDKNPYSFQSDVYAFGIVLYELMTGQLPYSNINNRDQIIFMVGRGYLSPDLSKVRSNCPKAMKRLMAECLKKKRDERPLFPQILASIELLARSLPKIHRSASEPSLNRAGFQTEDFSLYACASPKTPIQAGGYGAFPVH
-- reply > 10 µM

* * *

pIC50: −log10 of the molar value.
Measured property: pIC50

-- ask Form field - read-out: pIC50; system: JAK2 JH1 JH2 (human) (UniProt O60674); submitted item: CN1CC[C@H](c2c(O)cc(O)c3c(=O)cc(-c4ccccc4Cl)oc23)[C@H](O)C1
Sequence (O60674 whole entry, looked up): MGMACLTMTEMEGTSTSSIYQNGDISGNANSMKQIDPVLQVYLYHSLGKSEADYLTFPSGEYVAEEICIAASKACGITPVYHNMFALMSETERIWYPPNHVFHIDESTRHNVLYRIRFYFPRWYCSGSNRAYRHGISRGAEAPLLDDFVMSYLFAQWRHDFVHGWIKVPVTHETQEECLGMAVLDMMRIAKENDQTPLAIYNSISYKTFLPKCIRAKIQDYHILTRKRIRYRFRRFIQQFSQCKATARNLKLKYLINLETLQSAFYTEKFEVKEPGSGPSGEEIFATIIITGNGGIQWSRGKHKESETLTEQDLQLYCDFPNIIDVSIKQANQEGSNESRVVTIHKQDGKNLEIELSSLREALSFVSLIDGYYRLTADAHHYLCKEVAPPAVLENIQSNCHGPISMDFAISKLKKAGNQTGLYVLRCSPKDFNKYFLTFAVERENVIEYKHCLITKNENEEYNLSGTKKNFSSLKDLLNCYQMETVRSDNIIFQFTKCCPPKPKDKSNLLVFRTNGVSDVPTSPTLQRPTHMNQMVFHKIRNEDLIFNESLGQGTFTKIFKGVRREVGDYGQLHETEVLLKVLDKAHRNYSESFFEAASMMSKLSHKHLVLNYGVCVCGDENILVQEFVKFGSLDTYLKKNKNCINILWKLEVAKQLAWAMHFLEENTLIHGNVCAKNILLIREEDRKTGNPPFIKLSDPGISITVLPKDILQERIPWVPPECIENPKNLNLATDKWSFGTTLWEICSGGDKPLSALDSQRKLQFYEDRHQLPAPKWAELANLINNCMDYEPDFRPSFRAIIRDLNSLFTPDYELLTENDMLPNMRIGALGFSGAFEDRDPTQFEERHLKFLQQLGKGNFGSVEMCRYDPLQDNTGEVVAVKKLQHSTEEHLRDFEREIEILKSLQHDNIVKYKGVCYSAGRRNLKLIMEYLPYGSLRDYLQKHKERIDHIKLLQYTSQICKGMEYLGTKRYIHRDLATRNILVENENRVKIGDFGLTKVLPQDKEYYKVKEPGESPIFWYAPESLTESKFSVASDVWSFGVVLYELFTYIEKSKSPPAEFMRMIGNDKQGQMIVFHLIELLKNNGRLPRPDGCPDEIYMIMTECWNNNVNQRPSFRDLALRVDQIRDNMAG
-- reply < 5.00

* * *

target: TAOK3 (human) (UniProt Q9H2K8)
Sequence (Q9H2K8 whole entry, looked up): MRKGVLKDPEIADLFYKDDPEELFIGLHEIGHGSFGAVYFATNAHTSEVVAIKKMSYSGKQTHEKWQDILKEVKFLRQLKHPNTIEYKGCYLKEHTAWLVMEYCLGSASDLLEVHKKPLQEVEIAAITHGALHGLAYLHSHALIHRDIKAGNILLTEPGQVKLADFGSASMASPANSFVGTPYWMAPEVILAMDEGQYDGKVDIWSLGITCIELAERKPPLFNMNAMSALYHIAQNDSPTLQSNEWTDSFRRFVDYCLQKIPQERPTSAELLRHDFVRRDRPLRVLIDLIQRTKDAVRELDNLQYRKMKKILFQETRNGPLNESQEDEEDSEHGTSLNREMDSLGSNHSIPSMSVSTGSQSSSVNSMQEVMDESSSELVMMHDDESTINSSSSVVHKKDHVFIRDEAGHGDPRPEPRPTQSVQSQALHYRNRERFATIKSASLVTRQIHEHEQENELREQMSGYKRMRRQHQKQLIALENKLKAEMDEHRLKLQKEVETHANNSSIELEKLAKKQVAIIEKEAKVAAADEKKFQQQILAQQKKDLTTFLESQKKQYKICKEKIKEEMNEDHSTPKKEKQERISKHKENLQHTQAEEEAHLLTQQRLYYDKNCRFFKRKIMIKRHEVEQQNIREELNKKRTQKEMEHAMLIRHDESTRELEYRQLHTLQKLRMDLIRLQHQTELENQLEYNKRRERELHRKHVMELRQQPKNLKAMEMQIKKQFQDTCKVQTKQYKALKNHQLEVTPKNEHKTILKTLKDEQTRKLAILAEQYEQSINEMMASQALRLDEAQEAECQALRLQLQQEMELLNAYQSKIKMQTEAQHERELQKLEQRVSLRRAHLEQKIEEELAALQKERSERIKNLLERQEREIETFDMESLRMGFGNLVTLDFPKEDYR
Measured property: pIC50
Please express pIC50 as -log10 of the molar concentration.

-- ask Which value of pIC50 has been reported for CN1CC[C@H](c2c(O)cc(O)c3c(=O)cc(-c4ccccc4Cl)oc23)[C@H](O)C1 in the records?
-- reply 5.02

* * *

pIC50: −log10 of the molar value.
Measured property: pIC50

-- ask Param readout = pIC50; param system = SYK (human); param query = CN1CC[C@H](c2c(O)cc(O)c3c(=O)cc(-c4ccccc4Cl)oc23)[C@H](O)C1 ; response: value
-- reply < 5.00

* * *

biological target: PDPK1 (human) (UniProt O15530)
Sequence (O15530 whole entry, looked up): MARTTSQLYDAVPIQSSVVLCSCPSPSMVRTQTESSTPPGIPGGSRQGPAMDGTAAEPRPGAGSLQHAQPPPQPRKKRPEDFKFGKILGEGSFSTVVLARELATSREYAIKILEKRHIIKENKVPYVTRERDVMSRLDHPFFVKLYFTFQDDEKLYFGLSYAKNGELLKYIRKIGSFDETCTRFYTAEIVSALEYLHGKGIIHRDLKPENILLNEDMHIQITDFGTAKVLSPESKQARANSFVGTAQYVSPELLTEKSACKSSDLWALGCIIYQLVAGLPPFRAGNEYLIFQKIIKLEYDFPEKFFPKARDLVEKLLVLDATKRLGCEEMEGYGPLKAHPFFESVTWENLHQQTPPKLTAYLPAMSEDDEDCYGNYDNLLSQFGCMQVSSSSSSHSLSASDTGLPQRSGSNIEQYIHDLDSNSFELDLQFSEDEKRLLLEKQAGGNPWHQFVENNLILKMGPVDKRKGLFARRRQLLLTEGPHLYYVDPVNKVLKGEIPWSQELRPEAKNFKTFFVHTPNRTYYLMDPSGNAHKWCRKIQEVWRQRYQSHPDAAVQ
Measured property: IC50

-- ask What value of IC50 has been recorded for this entry: CN1CC[C@H](c2c(O)cc(O)c3c(=O)cc(-c4ccccc4Cl)oc23)[C@H](O)C1
-- reply > 10 µM
